Target desc: UniProt:P30551
Sequence (P30551 whole entry): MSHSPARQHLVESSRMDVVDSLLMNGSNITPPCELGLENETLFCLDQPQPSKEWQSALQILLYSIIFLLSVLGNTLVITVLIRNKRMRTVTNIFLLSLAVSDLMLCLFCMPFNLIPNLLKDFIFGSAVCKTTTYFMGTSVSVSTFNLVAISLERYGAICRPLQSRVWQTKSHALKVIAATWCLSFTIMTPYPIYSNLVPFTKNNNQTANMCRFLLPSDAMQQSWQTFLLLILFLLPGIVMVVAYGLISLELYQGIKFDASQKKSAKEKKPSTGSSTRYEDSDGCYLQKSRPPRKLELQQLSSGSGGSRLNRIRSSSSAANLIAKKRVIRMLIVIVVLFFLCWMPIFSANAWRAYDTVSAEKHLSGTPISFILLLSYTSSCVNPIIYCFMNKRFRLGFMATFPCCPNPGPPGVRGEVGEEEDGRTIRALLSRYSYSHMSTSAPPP
pKi: −log10 of the molar value.
This section presents compounds with their documented pKi values.
Property name: pKi

>>> print(df.to_string())
                               given_smiles     target_desc  reading_qualifier  result_value
0  CC(C)(C)OC(=O)N[C@@H](Cc1c[nH]c2ccccc12)C(=O)N[C@H]1CCCN2C(=O)N(Cc3ccccc3)C(=O)C[C@@H]12  UniProt:P30551                  =          9.21
1  CC(C)(C)OC(=O)N[C@H](Cc1c[nH]c2ccccc12)C(=O)N[C@@H]1CCCN2C(=O)N(Cc3ccccc3)C(=O)C[C@@H]12  UniProt:P30551                  <          5.30

###

Target desc: Gastrin/cholecystokinin type B receptor (Rattus norvegicus, UniProt P30553)
Sequence (P30553 whole entry): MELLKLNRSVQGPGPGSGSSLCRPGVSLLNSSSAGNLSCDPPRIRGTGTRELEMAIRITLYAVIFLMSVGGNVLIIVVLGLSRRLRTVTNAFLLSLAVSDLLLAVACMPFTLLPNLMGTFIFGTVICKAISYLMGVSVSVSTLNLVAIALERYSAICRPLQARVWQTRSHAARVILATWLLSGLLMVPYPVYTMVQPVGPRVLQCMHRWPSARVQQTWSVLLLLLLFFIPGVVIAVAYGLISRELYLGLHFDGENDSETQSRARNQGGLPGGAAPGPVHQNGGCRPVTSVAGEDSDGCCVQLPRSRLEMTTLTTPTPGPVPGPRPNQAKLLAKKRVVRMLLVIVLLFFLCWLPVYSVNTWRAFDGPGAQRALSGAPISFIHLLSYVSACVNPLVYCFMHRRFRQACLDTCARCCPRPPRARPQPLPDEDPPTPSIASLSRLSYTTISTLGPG
Property name: Ki

In [3]: df
Out[3]:
                               given_smiles  result_value
0  COC(=O)[C@@]1(Cc2ccccc2)C[C@@H]2[C@@H](NC(=O)[C@H](Cc3c[nH]c4ccccc34)NC(=O)OC(C)(C)C)CCCN2C1=O        > 5 µM
1  CC(C)(C)OC(=O)N[C@H](Cc1c[nH]c2ccccc12)C(=O)N[C@H]1CCCN2C(=O)N(Cc3ccccc3)C(=O)C[C@@H]12        > 5 µM
2  COC(=O)[C@]1(Cc2ccccc2)C[C@@H]2[C@@H](NC(=O)[C@@H](Cc3c[nH]c4ccccc34)NC(=O)OC(C)(C)C)CCCN2C1=O       1.56 µM
3  CC(C)(C)OC(=O)N[C@@H](Cc1c[nH]c2ccccc12)C(=O)N[C@@H]1CCCN2C(=O)N(Cc3ccccc3)C(=O)C[C@H]12       2.73 µM
4  CC(C)(C)OC(=O)N[C@@H](Cc1c[nH]c2ccccc12)C(=O)N[C@H]1CCCN2C(=O)N(Cc3ccccc3)C(=O)C[C@@H]12        > 5 µM
5  CC(C)(C)OC(=O)N[C@@H](Cc1c[nH]c2ccccc12)C(=O)N[C@H]1CCCN2C(=O)N(Cc3ccccc3)C(=O)C[C@H]12        > 5 µM
